// provenance: paper PMC11597774

Molecular target: Soybean lipoxygenase (Type I-B) (Glycine max)
Construct: purchased Merck (KGaA, Darmstadt, Germany)
Sequence (P08170 1-839): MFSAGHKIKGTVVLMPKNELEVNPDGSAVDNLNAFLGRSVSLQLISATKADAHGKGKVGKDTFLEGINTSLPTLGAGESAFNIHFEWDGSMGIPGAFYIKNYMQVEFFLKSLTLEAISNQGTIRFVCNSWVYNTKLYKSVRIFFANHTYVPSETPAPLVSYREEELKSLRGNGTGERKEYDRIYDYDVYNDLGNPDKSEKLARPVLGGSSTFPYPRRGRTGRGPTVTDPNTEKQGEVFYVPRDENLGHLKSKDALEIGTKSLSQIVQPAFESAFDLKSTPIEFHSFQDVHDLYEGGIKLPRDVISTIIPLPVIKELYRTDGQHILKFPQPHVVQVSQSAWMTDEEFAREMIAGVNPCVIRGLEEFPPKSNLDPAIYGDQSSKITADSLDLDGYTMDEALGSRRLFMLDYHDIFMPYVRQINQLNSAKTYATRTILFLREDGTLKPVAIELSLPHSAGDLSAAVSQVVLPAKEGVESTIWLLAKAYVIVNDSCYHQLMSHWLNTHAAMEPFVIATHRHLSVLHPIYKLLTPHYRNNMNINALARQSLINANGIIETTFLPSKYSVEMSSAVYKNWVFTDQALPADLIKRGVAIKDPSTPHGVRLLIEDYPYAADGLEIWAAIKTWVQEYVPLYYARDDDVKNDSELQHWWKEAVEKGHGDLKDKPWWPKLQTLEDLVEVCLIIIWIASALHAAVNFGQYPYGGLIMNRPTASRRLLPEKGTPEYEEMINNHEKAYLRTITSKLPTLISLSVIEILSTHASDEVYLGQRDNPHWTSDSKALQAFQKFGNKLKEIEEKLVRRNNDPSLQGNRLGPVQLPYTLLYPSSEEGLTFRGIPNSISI
Test: In vitro LOX inhibition assay
Assay type: biochemical
Conditions: 50 µM; read-out: Anti-LOX Activity (%)
Rule: inhibition at 50 µM of 60% or more gives T; anything lower gives F.

                                   compound  assigned_category
0  NNC(=O)c1ccc(O)c(O)c1O [H-1, 2,3,4-trihydroxybenzohydrazide]                  F
1  C/C(NNC(=O)c1cc(O)c(O)c(O)c1)=C1\C(=O)Oc2ccccc2C1=O                  T
2  CC(=O)c1c(O)c2ccccc2oc1=O [3AcHyC, 3-acetyl-4-hydroxycoumarin]                  F
3  NNC(=O)c1cc(O)c(O)c(O)c1 [H-2, 3,4,5-trihydroxybenzohydrazide]                  F
4  C/C(NNC(=O)c1ccc(O)c(O)c1O)=C1\C(=O)Oc2ccccc2C1=O                  T

###

Examples of compounds with documented inhibition at 25 µM follow.
Biological target: Soybean lipoxygenase (Type I-B) (Glycine max, UniProt P08170)
Construct: purchased Merck (KGaA, Darmstadt, Germany)
Sequence (P08170 1-839): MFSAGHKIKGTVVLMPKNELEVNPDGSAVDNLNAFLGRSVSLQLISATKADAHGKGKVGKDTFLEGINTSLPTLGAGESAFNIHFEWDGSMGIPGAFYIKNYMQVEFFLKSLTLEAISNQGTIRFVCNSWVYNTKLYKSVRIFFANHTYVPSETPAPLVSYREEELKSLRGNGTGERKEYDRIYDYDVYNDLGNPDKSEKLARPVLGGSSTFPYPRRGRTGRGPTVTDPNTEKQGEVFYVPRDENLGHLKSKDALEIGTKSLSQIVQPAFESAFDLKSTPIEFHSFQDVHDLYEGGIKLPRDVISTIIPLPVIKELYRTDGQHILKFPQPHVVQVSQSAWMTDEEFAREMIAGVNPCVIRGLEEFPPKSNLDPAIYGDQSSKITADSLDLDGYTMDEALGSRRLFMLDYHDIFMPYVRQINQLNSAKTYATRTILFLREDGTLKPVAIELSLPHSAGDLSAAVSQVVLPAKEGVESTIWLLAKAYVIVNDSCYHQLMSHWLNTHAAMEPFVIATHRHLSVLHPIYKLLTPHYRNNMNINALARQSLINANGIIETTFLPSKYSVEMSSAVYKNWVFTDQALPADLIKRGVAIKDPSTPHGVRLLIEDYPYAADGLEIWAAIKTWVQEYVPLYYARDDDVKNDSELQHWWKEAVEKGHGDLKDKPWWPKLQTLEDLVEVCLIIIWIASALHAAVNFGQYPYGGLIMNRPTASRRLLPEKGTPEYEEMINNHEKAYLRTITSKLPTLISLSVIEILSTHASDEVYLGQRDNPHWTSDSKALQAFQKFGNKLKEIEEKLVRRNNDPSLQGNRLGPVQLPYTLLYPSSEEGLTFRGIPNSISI
Test: In vitro LOX inhibition assay
Assay type: biochemical
Conditions: 25 µM; read-out: Anti-LOX Activity (%)
Measured Quantity: inhibition at 25 µM

                                   compound                        measurement_target  result
0  NNC(=O)c1ccc(O)c(O)c1O [H-1, 2,3,4-trihydroxybenzohydrazide]  Soybean lipoxygenase (Type I-B) (Glycine max, UniProt P08170)   21.6%
1  C/C(NNC(=O)c1cc(O)c(O)c(O)c1)=C1\C(=O)Oc2ccccc2C1=O  Soybean lipoxygenase (Type I-B) (Glycine max, UniProt P08170)   38.9%
2  NNC(=O)c1cc(O)c(O)c(O)c1 [H-2, 3,4,5-trihydroxybenzohydrazide]  Soybean lipoxygenase (Type I-B) (Glycine max, UniProt P08170)     32%
3  CC(=O)c1c(O)c2ccccc2oc1=O [3AcHyC, 3-acetyl-4-hydroxycoumarin]  Soybean lipoxygenase (Type I-B) (Glycine max, UniProt P08170)   26.4%
4  C/C(NNC(=O)c1ccc(O)c(O)c1O)=C1\C(=O)Oc2ccccc2C1=O  Soybean lipoxygenase (Type I-B) (Glycine max, UniProt P08170)   32.8%
